- assay system: TAK1-TAB1 fusion protein (Homo sapiens)
- Construct: purchased Carna
- assay name: TAK1 biochemical assay (AlphaScreen, GST-MAP2K7 substrate)
- condition context: TAK1-TAB1 fusion protein, GST-MAP2K7 substrate; read-out: mean TAK1 IC50 (Col. A)
pIC50: −log10 of the molar value. Where a name gives a salt, the structure may show the parent alone.
readout: pIC50

Worked examples follow.
Nc1ncc(-c2cnn([C@H]3CC[C@H](O)CC3)c2)c2cc(-c3cc(-c4cc[nH]n4)cc4nnsc34)oc12; 6.00 to 7.00
CC(=O)N1CCC(n2cc(-c3cnc(N)c4oc(-c5csc6cn(C)c(=O)cc56)cc34)cn2)CC1 [Example 244, trifluoroacetate]; 5.00 to 6.00
Nc1ncc(-c2cnn(CCO)c2)c2cc(-c3cccc4cnccc34)oc12; 5.00 to 6.00
CN(C)C(=O)CCn1cc(-c2cnc(N)c3oc(-c4csc5cnccc45)cc23)cn1; 6.00 to 7.00

The compound listed as `CC(=O)N1CCC(n2cc(-c3cnc(N)c4oc(-c5ccc6[nH]nc(C#N)c6c5)cc34)cn2)CC1` shows pIC50 equal to 6.00 to 7.00

The compound listed as `CC(=O)N1CCC(n2cc(-c3cnc(N)c4oc(-c5cccc(C#N)c5)cc34)cn2)CC1` shows pIC50 equal to 6.00 to 7.00

The compound listed as `CC(C)n1cc(-c2cnc(N)c3oc(-c4cccc5cnccc45)cc23)cn1` shows pIC50 equal to 6.00 to 7.00

The compound listed as `CC(=O)N1CCC(n2cc(-c3cnc(N)c4oc(-c5cccc6ccncc56)cc34)cn2)CC1` shows pIC50 equal to 5.00 to 6.00

The compound listed as `COc1c(-c2cnc(N)c3oc(-c4csc5cnccc45)cc23)cnn1C` shows pIC50 equal to 6.00 to 7.00

* * *

- Test system: pJNK in HCT-116 cells
- assay name: Phospho-JNK (Thr183/Tyr185) Meso Scale ELISA assay, TNFα-stimulated HCT-116 cells
- Format: cell-based
- condition context: Homo sapiens, read-out: mean HCT-116 pJNK ELISA IC50 (Col. B)
Structures can show the parent of a compound that is named as a salt.
readout: IC50

Worked examples follow.
CC(=O)N1CCC(n2cc(-c3cnc(N)c4oc(-c5cccc(CO)c5)cc34)cn2)CC1 [Example 169]; 0.1 to 1 µM
Nc1ncc(-c2cnn(C3CCN(C(=O)Nc4cccc5c4CCCC5)CC3)c2)c2cc(-c3cccc4cnsc34)oc12 [Example 340]; 0.1 to 1 µM

The compound listed as Nc1ncc(-c2cnn(C3CCNCC3)c2)c2cc(-c3cccc4cnsc34)oc12 [Example 323] shows IC50 equal to 1 to 10 µM

The compound listed as Cc1c(-c2cccc3nnsc23)oc2c(N)ncc(-c3cnn([C@H]4CC[C@H](O)CC4)c3)c12 [Example 362] shows IC50 equal to < 0.1 µM

The compound listed as Nc1ncc(-c2cnn([C@H]3CC[C@H](O)CC3)c2)c2cc(-c3cccc4ncsc34)oc12 [Example 231, diformate salt] shows IC50 equal to < 0.1 µM

The compound listed as CC(=O)N1CCC(n2cc(-c3cnc(N)c4oc(-c5ccccc5CC#N)cc34)cn2)CC1 [Example 215] shows IC50 equal to 0.1 to 1 µM

The compound listed as Cc1cc(-c2cc3c(-c4cnn([C@H]5CC[C@H](O)CC5)c4)cnc(N)c3o2)c2snnc2c1 [Example 373] shows IC50 equal to < 0.1 µM

* * *

Each record here notes measured IC50.
- System: p-p38 in HCT-116 cells
- assay name: Phospho-p38 Meso Scale ELISA assay, TNFα-stimulated HCT-116 cells
- Format: cell-based
- condition context: Homo sapiens, read-out: mean HCT-116 p-p38 ELISA IC50 (Col. C)
Where a name gives a salt, the structure may show the parent alone.

CC(=O)N1CCC(n2cc(-c3cnc(N)c4oc(-c5cc(C)c(O)c(C)c5)cc34)cn2)CC1; 1000 to 10000 nM
Nc1ncc(-c2cnn([C@H]3CC[C@H](O)CC3)c2)c2cc(-c3cccc4cnsc34)oc12; 100 to 1000 nM
Nc1ncc(-c2cnn([C@@H]3C[C@@H](O)[C@@H](O)C3)c2)c2cc(-c3csc4cnccc34)oc12; 100 to 1000 nM

# evaluate next
Measured on p-p38 in HCT-116 cells, Cc1sc2cnccc2c1-c1cc2c(-c3cnn([C@H]4CC[C@H](O)CC4)c3)cnc(N)c2o1 [Example 252, trifluoroacetate] has a documented IC50 of 100 to 1000 nM

* * *

- assay system: TAK1-TAB1 fusion protein (Homo sapiens, UniProt O43318)
- Construct: purchased Carna
- Sequence (O43318 with tags, fused parts or gaps limits assumed): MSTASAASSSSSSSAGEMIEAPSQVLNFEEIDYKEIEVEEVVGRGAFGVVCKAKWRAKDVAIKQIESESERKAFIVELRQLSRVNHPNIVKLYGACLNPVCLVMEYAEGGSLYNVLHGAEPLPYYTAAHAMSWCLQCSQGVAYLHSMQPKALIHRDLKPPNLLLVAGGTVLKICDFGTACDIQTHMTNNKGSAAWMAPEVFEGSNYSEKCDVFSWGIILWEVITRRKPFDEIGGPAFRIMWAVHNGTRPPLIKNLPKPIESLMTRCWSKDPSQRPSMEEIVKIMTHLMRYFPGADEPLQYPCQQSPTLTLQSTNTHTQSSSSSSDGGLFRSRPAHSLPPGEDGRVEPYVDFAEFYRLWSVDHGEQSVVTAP
- assay name: TAK1 biochemical assay (AlphaScreen, GST-MAP2K7 substrate)
pIC50: −log10 of the molar value.
readout: pIC50

Worked examples follow.
Cn1cc(-c2cnc(N)c3oc(-c4csc5cnccc45)cc23)cn1; 6.00 to 7.00
Nc1ncc(-c2cnn([C@H]3CC[C@H](O)CC3)c2)c2cc(-c3cccc4nnsc34)oc12; > 7.00

The compound listed as `Cc1c(-c2cnc(N)c3oc(-c4csc5cnccc45)cc23)cnn1C` shows pIC50 equal to 5.00 to 6.00

The compound listed as `Cc1nn(C)cc1-c1cnc(N)c2oc(-c3csc4cnccc34)cc12` shows pIC50 equal to 5.00 to 6.00

* * *

Each record here notes measured IC50.
- assay system: TAK1-TAB1 fusion protein (Homo sapiens)
- Construct: purchased Carna
- assay name: TAK1 biochemical assay (AlphaScreen, GST-MAP2K7 substrate)
- condition context: TAK1-TAB1 fusion protein, GST-MAP2K7 substrate; read-out: mean TAK1 IC50 (Col. A)

Cc1c(-c2cnc(N)c3oc(-c4csc5cnccc45)cc23)cnn1[C@H]1CC[C@H](O)CC1; 1000 to 10000 nM

Measured on TAK1-TAB1 fusion protein (Homo sapiens), `Nc1ncc(-c2cnn(C3CCNCC3)c2)c2cc(-c3cccc(C(F)(F)F)c3)oc12` has a documented IC50 of 1000 to 10000 nM

Measured on TAK1-TAB1 fusion protein (Homo sapiens), `CSc1ccccc1-c1cc2c(-c3cnn(C4CCN(C(C)=O)CC4)c3)cnc(N)c2o1` has a documented IC50 of 100 to 1000 nM

Measured on TAK1-TAB1 fusion protein (Homo sapiens), `CC(=O)N1CCC(n2cc(-c3cnc(N)c4oc(-c5cccc(OCC#N)c5)cc34)cn2)CC1` has a documented IC50 of 100 to 1000 nM

* * *

- assay system: TAK1-TAB1 fusion protein (Homo sapiens, UniProt O43318)
- Construct: purchased Carna
- assay name: TAK1 biochemical assay (AlphaScreen, GST-MAP2K7 substrate)
- condition context: TAK1-TAB1 fusion protein, GST-MAP2K7 substrate; read-out: mean TAK1 IC50 (Col. A)
Each record here notes measured IC50.

CC(=O)N1CCC(n2cc(-c3cnc(N)c4oc(-c5ccc6c(c5)C(=O)NC6)cc34)cn2)CC1; 0.1 to 1 µM
Nc1ncc(-c2cnn(CC(=O)O)c2)c2cc(-c3csc4cnccc34)oc12; 0.1 to 1 µM
CC(=O)N1CCC(n2cc(-c3cnc(N)c4oc(-c5ccc(OC(F)(F)F)cc5)cc34)cn2)CC1; > 10 µM

# evaluate next
The molecule listed as `Cc1nn(CC(C)(C)O)cc1-c1cnc(N)c2oc(-c3csc4cnccc34)cc12` shows IC50 equal to 1 to 10 µM

* * *

- Test system: p-p38 in HCT-116 cells
- assay name: Phospho-p38 Meso Scale ELISA assay, TNFα-stimulated HCT-116 cells
- Assay type: cell-based
- condition context: Homo sapiens, read-out: mean HCT-116 p-p38 ELISA IC50 (Col. C)
pIC50: −log10 of the molar value.
readout: pIC50

Worked examples follow.
CN1CCC(n2cc(-c3cnc(N)c4oc(-c5cccc6cnccc56)cc34)cn2)CC1; 6.00 to 7.00
CC(=O)N1CCC(n2cc(-c3cnc(N)c4oc(-c5csc6cnccc56)cc34)cn2)CC1; 6.00 to 7.00
CC(=O)N1CCC(n2cc(-c3cnc(N)c4oc(-c5c[nH]c6cc(F)ccc56)cc34)cn2)CC1; 6.00 to 7.00
CC(C)n1cc(-c2cnc(N)c3oc(-c4cccc5cnccc45)cc23)cn1; 6.00 to 7.00
CC(=O)N1CCC(n2cc(-c3cnc(N)c4oc(-c5ccccc5C)cc34)cn2)CC1; 5.00 to 6.00
Cn1cc(-c2cnc(N)c3oc(-c4cccc5cnccc45)cc23)cn1; 6.00 to 7.00

The compound listed as `Nc1ncc(-c2cnn(C3CC4(C3)OCCO4)c2)c2cc(-c3csc4cnccc34)oc12` shows pIC50 equal to 6.00 to 7.00

The compound listed as `Nc1ncc(-c2cnn([C@H]3CC[C@H](O)CC3)c2)c2cc(-c3ccc4[nH]ncc4c3)oc12` shows pIC50 equal to 5.00 to 6.00

The compound listed as `CC(=O)N1CCC(n2cc(-c3cnc(N)c4oc(-c5cnn(Cc6cccnc6)c5)cc34)cn2)CC1` shows pIC50 equal to < 5.00

The compound listed as `Nc1ncc(-c2cnn(C3CCN(CCF)CC3)c2)c2cc(-c3cccc4cnccc34)oc12` shows pIC50 equal to 6.00 to 7.00

The compound listed as `Cc1nn(CC(C)(C)O)cc1-c1cnc(N)c2oc(-c3csc4cnccc34)cc12` shows pIC50 equal to 5.00 to 6.00

Data credit: patent US8378104B2
